Biological target: Mitogen-activated protein kinase 10 (Homo sapiens)
Settings: at 10 µM
residual activity vs 60%: less than gives MET; not less than gives NOT MET.

{"Mol smiles": "O=C1Nc2ccc3ncsc3c2/C1=C/c1c[nH]cn1", "Test system": "Mitogen-activated protein kinase 10 (Homo sapiens)", "Class": "MET"}
{"Mol smiles": "N/C(=N\\[N+](=O)[O-])N/N=C\\c1ccc(-c2cccc([N+](=O)[O-])c2)o1", "Test system": "Mitogen-activated protein kinase 10 (Homo sapiens)", "Class": "NOT MET"}
{"Mol smiles": "COc1cc(OC)c(/C=C2\\C(=O)Nc3ccccc32)c(OC)c1", "Test system": "Mitogen-activated protein kinase 10 (Homo sapiens)", "Class": "NOT MET"}
{"Mol smiles": "COC(=O)[C@@]1(O)C[C@H]2O[C@]1(C)n1c3ccccc3c3c4c(c5c6ccccc6n2c5c31)C(=O)NC4", "Test system": "Mitogen-activated protein kinase 10 (Homo sapiens)", "Class": "MET"}
{"Mol smiles": "O=[N+]([O-])/C=C/c1ccc2c(c1)OCO2", "Test system": "Mitogen-activated protein kinase 10 (Homo sapiens)", "Class": "NOT MET"}
{"Mol smiles": "CCc1nc(-c2ccc(OC)cc2)[nH]c1-c1ccncc1", "Test system": "Mitogen-activated protein kinase 10 (Homo sapiens)", "Class": "NOT MET"}
{"Mol smiles": "COc1ccc2c(c1)/C(=C/c1cnc[nH]1)C(=O)N2", "Test system": "Mitogen-activated protein kinase 10 (Homo sapiens)", "Class": "MET"}
{"Mol smiles": "COc1ccc2c(c[n+](C)c3c4cc5c(cc4ccc23)OCO5)c1OC", "Test system": "Mitogen-activated protein kinase 10 (Homo sapiens)", "Class": "NOT MET"}
{"Mol smiles": "CCn1cnc2c(Nc3cccc(Cl)c3)nc(N[C@@H]3CCCC[C@@H]3N)nc21", "Test system": "Mitogen-activated protein kinase 10 (Homo sapiens)", "Class": "NOT MET"}
{"Mol smiles": "O=C1NC(=O)c2c1c1c3ccccc3n3c1c1c2c2ccccc2n1C1CCC3O1", "Test system": "Mitogen-activated protein kinase 10 (Homo sapiens)", "Class": "MET"}
{"Mol smiles": "O=c1[nH]c2ccccc2n1C1CCN(Cc2ccc(-c3nc4cc5[nH]cnc5cc4nc3-c3ccccc3)cc2)CC1", "Test system": "Mitogen-activated protein kinase 10 (Homo sapiens)", "Class": "NOT MET"}
{"Mol smiles": "COc1cc2ncnc(Nc3ccc(OCc4ccccc4)cc3)c2cc1OC", "Test system": "Mitogen-activated protein kinase 10 (Homo sapiens)", "Class": "NOT MET"}

----------
Molecular target: Tyrosine-protein kinase Fgr (Homo sapiens) (UniProt P09769)
Sequence (P09769 2-529 limits assumed): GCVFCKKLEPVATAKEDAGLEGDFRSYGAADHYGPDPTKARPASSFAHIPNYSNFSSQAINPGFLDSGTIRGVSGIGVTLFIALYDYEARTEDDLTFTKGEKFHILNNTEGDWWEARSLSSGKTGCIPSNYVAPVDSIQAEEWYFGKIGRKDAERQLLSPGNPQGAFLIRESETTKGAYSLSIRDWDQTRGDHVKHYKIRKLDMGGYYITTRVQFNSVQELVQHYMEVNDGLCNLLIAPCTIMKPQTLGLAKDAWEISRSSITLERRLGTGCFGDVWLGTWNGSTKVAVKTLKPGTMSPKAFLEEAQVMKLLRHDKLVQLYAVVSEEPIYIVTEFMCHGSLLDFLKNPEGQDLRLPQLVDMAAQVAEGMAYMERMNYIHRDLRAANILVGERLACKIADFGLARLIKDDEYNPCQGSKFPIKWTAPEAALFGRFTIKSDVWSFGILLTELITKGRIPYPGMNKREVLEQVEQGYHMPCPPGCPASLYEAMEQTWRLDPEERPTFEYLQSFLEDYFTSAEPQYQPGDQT
Settings: at 10 µM
Parameter measured: residual activity (%)

{"Compound": "CC(C)(C)c1cc(C=C(C#N)C#N)cc(Br)c1O", "Readout value": 96}
{"Compound": "O=c1[nH]c2ccccc2n1C1CCN(Cc2ccc(-c3nc4cc5[nH]cnc5cc4nc3-c3ccccc3)cc2)CC1", "Readout value": 83}
{"Compound": "O=[N+]([O-])/C=C/c1ccc2c(c1)OCO2", "Readout value": 92}
{"Compound": "COc1cc(OC)c(/C=C2\\C(=O)Nc3ccccc32)c(OC)c1", "Readout value": 76}
{"Compound": "C[S+]([O-])c1ccc(-c2nc(-c3ccc(F)cc3)c(-c3ccncc3)[nH]2)cc1 (stereo not given)", "Readout value": 51}

----------
Molecular target: Maternal embryonic leucine zipper kinase (Homo sapiens) (UniProt Q14680)
Sequence (Q14680 whole entry, looked up): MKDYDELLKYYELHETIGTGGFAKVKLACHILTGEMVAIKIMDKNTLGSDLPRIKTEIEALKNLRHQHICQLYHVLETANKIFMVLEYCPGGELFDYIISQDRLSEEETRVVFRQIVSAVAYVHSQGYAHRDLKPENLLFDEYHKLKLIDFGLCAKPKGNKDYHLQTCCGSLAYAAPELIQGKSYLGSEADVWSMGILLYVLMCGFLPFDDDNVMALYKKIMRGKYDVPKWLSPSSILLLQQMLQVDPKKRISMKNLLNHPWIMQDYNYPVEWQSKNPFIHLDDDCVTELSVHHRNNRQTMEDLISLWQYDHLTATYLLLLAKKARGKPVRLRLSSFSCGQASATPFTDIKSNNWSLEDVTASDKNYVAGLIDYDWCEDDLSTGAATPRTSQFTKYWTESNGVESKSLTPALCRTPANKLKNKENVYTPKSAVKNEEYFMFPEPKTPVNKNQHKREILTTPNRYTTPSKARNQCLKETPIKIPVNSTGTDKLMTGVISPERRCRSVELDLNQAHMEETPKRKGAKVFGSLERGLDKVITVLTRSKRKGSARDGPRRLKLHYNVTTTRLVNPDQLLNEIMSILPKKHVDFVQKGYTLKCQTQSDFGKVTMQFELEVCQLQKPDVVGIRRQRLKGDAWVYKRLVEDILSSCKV
Conditions: at 1 µM
So basically: residual activity at 80% or higher? That is satisfied. Lower than 80%? That is not satisfied.

{"Molecule": "COC(=O)[C@@]1(O)C[C@H]2O[C@]1(C)n1c3ccccc3c3c4c(c5c6ccccc6n2c5c31)C(=O)NC4", "Class": "not satisfied"}
{"Molecule": "C[S+]([O-])c1ccc(-c2nc(-c3ccc(F)cc3)c(-c3ccncc3)[nH]2)cc1 (stereo unspecified)", "Class": "satisfied"}
{"Molecule": "O=c1[nH]c2ccccc2n1C1CCN(Cc2ccc(-c3nc4cc5[nH]cnc5cc4nc3-c3ccccc3)cc2)CC1", "Class": "satisfied"}
{"Molecule": "COc1ccc2c(c[n+](C)c3c4cc5c(cc4ccc23)OCO5)c1OC", "Class": "satisfied"}
{"Molecule": "N/C(=N\\[N+](=O)[O-])N/N=C\\c1ccc(-c2cccc([N+](=O)[O-])c2)o1", "Class": "satisfied"}
{"Molecule": "c1cc(-c2cnn3cc(-c4ccc(OCCN5CCCCC5)cc4)cnc23)ccn1", "Class": "not satisfied"}
{"Molecule": "O=C1Nc2ccc3ncsc3c2/C1=C/c1c[nH]cn1", "Class": "not satisfied"}
{"Molecule": "O=C1c2ccccc2-c2nc3nnnn3nc21", "Class": "not satisfied"}
{"Molecule": "CCn1cnc2c(Nc3cccc(Cl)c3)nc(N[C@@H]3CCCC[C@@H]3N)nc21", "Class": "not satisfied"}

----------
Target: Serine/threonine-protein kinase BRSK2 (Homo sapiens) (UniProt Q8IWQ3)
Sequence (whole entry): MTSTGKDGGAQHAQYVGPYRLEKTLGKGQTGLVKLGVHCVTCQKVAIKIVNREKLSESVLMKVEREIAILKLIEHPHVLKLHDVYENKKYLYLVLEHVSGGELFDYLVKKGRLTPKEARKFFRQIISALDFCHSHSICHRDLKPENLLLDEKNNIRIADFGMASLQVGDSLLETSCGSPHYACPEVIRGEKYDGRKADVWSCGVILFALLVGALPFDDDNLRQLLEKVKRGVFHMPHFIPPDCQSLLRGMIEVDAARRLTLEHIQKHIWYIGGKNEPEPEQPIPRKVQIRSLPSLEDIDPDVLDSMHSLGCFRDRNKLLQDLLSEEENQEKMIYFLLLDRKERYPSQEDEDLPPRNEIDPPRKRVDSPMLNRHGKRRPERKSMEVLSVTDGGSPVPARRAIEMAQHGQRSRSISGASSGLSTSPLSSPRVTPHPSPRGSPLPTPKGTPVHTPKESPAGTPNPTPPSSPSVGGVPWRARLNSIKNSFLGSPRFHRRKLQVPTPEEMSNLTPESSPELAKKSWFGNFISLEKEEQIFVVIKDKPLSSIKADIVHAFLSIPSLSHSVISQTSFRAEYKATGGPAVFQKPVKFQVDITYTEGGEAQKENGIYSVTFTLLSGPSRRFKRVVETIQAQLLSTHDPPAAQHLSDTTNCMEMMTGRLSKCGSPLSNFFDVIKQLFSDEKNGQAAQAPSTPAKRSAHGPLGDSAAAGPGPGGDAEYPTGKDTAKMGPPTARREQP
Details: at 1 µM
residual activity for assorted compounds

{"Compound": "CC(C)(C)c1cc(C=C(C#N)C#N)cc(Br)c1O", "Test system": "Serine/threonine-protein kinase BRSK2 (Homo sapiens) (UniProt Q8IWQ3)", "Result units": "%", "residual activity": 112}
{"Compound": "O=C1Nc2ccc3ncsc3c2/C1=C/c1c[nH]cn1", "Test system": "Serine/threonine-protein kinase BRSK2 (Homo sapiens) (UniProt Q8IWQ3)", "Result units": "%", "residual activity": 11}
{"Compound": "O=C1c2ccccc2-c2nc3nnnn3nc21", "Test system": "Serine/threonine-protein kinase BRSK2 (Homo sapiens) (UniProt Q8IWQ3)", "Result units": "%", "residual activity": 121}
{"Compound": "COC(=O)[C@@]1(O)C[C@H]2O[C@]1(C)n1c3ccccc3c3c4c(c5c6ccccc6n2c5c31)C(=O)NC4", "Test system": "Serine/threonine-protein kinase BRSK2 (Homo sapiens) (UniProt Q8IWQ3)", "Result units": "%", "residual activity": 1}
{"Compound": "CCc1nc(-c2ccc(OC)cc2)[nH]c1-c1ccncc1", "Test system": "Serine/threonine-protein kinase BRSK2 (Homo sapiens) (UniProt Q8IWQ3)", "Result units": "%", "residual activity": 111}
{"Compound": "C[S+]([O-])c1ccc(-c2nc(-c3ccc(F)cc3)c(-c3ccncc3)[nH]2)cc1 (centres undefined)", "Test system": "Serine/threonine-protein kinase BRSK2 (Homo sapiens) (UniProt Q8IWQ3)", "Result units": "%", "residual activity": 102}
{"Compound": "O=C1NC(=O)c2c1c1c3ccccc3n3c1c1c2c2ccccc2n1C1CCC3O1", "Test system": "Serine/threonine-protein kinase BRSK2 (Homo sapiens) (UniProt Q8IWQ3)", "Result units": "%", "residual activity": 53}
{"Compound": "CC(C)[C@H](CO)Nc1nc(Nc2cccc(Cl)c2)c2ncn(C(C)C)c2n1", "Test system": "Serine/threonine-protein kinase BRSK2 (Homo sapiens) (UniProt Q8IWQ3)", "Result units": "%", "residual activity": 122}
{"Compound": "COc1ccc2c(c1)/C(=C/c1cnc[nH]1)C(=O)N2", "Test system": "Serine/threonine-protein kinase BRSK2 (Homo sapiens) (UniProt Q8IWQ3)", "Result units": "%", "residual activity": 48}
